The entries below come with measured Binding affinity values attached.
Target: acetylcholine receptor
Assay: SPR, AchR immobilized on chip, peptide at 10 uM

binder	Binding affinity, RU
KSICRR [6mer-2-6]	122
RVQTRR [6mer-2-20]	137
KVLSRK [6mer-2-28]	142
KVYSRK [6mer-2-3]	148
KSVSKK [6mer-2-64]	136
RRFRKK [6mer-2-48]	153
RCTNKR [6mer-2-1199]	27
KGVCRR [6mer-2-16]	121
